Cited source: patent US20190330224A1

Please respond with reported MIC for every item in the list.
Test system: C. parapsilosis ATCC 22019
Assay: Anti-Fungal Activity Assay (broth microtiter MIC), C. parapsilosis
Type: cell-based, Candida parapsilosis
Details: Lodderomyces parapsilosis, ATCC22019, 48 h, 3 replicates; MIC recorded at 48 h; read-out: MIC C. parapsilosis ATCC 22019
Protocol: Compounds of the present invention were evaluated in an Anti-Fungal Activity Assay. An exemplary procedure for the assay, which measures the susceptibility of various Candida species to anti-fungal compounds, follows. […] The concentration of the suspension was determined using pre-determined standard curves. […] The original CLSI guidelines focused on reading Candida MICs after 48 h of incubation. […]

Prompt line: Find the recorded MIC belonging to COc1ccc(F)cc1[C@H](Cn1c(=O)n([C@@]2(C)CNC(=O)C2)c(=O)c2c(C)c(-n3nccn3)sc21)OCCO and report it.
Response line: 2.1 to 4 µg/mL

Prompt line: Find the recorded MIC belonging to COc1ccc(F)cc1[C@H](Cn1c(=O)n([C@@H]2CCCN(C)C2=O)c(=O)c2c(C)c(-n3nccn3)sc21)OCCO and report it.
Response line: 2.1 to 4 µg/mL

Prompt line: Find the recorded MIC belonging to COc1ccc(F)cc1[C@H](Cn1c(=O)n([C@H]2CCCNC2=O)c(=O)c2c(C)c(-n3nccn3)sc21)OCCC#N and report it.
Response line: 2.1 to 4 µg/mL

Prompt line: Find the recorded MIC belonging to COCCO[C@@H](Cn1c(=O)n(C2CCN(C(C)C)C2=O)c(=O)c2c(C)c(-n3nccn3)sc21)c1cc(F)ccc1OC (stereo partly drawn) and report it.
Response line: 2.1 to 4 µg/mL

Prompt line: Find the recorded MIC belonging to COc1ccc(F)cc1[C@H](Cn1c(=O)n([C@@H]2CCCN(C)C2=O)c(=O)c2c(C)c(-n3nccn3)sc21)OC1CCOCC1 and report it.
Response line: 0.25 to 1 µg/mL

Prompt line: Find the recorded MIC belonging to COc1ccc(F)cc1[C@H](Cn1c(=O)n([C@H]2CCN(C)C2=O)c(=O)c2c(C)c(-n3nccn3)sc21)OC and report it.
Response line: 2.1 to 4 µg/mL

###

Endpoint: IC50. System: UniProt:O00763. Items follow.

Prompt line: Find the recorded IC50 belonging to COc1ccc(F)cc1[C@H](Cn1c(=O)n([C@H]2CCNC2=O)c(=O)c2c(C)c(-c3ncco3)sc21)O[C@H]1CC[C@@H](O)CC1 and report it.
Response line: 0.002 to 0.01 µM

Prompt line: Find the recorded IC50 belonging to COc1ccc(F)cc1[C@H](Cn1c(=O)n([C@@H]2CCCNC2=O)c(=O)c2c(C)c(-n3nccn3)sc21)O[C@H]1CC[C@@H](O)CC1 and report it.
Response line: 0.002 to 0.01 µM

Prompt line: Find the recorded IC50 belonging to COCCO[C@@H](Cn1c(=O)n([C@@H]2CCCN(C)C2=O)c(=O)c2c(C)c(-n3nccn3)sc21)c1cc(F)ccc1OC and report it.
Response line: 0.01 to 0.1 µM

Prompt line: Find the recorded IC50 belonging to COc1ccccc1C(=O)Cn1c(=O)n([C@@H]2CCN(C)C2=O)c(=O)c2c(C)c(-n3nccn3)sc21 and report it.
Response line: 0.1 to 1 µM

Prompt line: Find the recorded IC50 belonging to COc1ccc(F)cc1[C@H](Cn1c(=O)n(C2CCNC2=O)c(=O)c2c(C)c(-n3nccn3)sc21)OCCO (stereo partly shown) and report it.
Response line: 0.002 to 0.01 µM

Prompt line: Find the recorded IC50 belonging to COc1ccc(F)cc1[C@H](Cn1c(=O)n([C@H]2CCNC2=O)c(=O)c2c(C)c(-n3nccn3)sc21)O[C@H]1CC[C@@H](O)CC1 and report it.
Response line: 0.002 to 0.01 µM

Prompt line: Find the recorded IC50 belonging to COCCO[C@@H](Cn1c(=O)n(CCN2CCCNC2=O)c(=O)c2c(C)c(-n3nccn3)sc21)c1cc(F)ccc1OC and report it.
Response line: 0.01 to 0.1 µM

Prompt line: Find the recorded IC50 belonging to COc1ccc(F)cc1[C@H](Cn1c(=O)n([C@H]2CNC(=O)C2)c(=O)c2c(C)c(-n3nccn3)sc21)OCCO and report it.
Response line: 0.002 to 0.01 µM

Prompt line: Find the recorded IC50 belonging to COCCO[C@@H](Cn1c(=O)n(C2CCN(C(C)C)C2=O)c(=O)c2c(C)c(-n3nccn3)sc21)c1cc(F)ccc1OC (stereo partly shown) and report it.
Response line: 0.01 to 0.1 µM

Prompt line: Find the recorded IC50 belonging to COc1ccc(F)cc1[C@H](Cn1c(=O)n([C@H]2CCN(C)C2=O)c(=O)c2c(C)c(-n3nccn3)sc21)OCCCO and report it.
Response line: 0.002 to 0.01 µM

Prompt line: Find the recorded IC50 belonging to COc1ccc(F)cc1[C@H](Cn1c(=O)n(C2CCN(C(C)C)C2=O)c(=O)c2c(C)c(-n3nccn3)sc21)OC1CCOCC1 (stereo in doubt) and report it.
Response line: 0.002 to 0.01 µM

Prompt line: Find the recorded IC50 belonging to COc1ccc(F)cc1[C@H](Cn1c(=O)n([C@@H]2CCCNC2=O)c(=O)c2c(C)c(-n3nccn3)sc21)OCCC(=O)O and report it.
Response line: 0.01 to 0.1 µM

Prompt line: Find the recorded IC50 belonging to COc1ccccc1[C@H](Cn1c(=O)n(C2CCN(C)C2=O)c(=O)c2c(C)c(-c3ncco3)sc21)OCCO (stereo partly shown) and report it.
Response line: 0.01 to 0.1 µM

Prompt line: Find the recorded IC50 belonging to COCCO[C@@H](Cn1c(=O)n(C2CCCN(C(C)C)C2=O)c(=O)c2c(C)c(-n3nccn3)sc21)c1cc(F)ccc1OC (stereo partly shown) and report it.
Response line: 0.1 to 1 µM

Prompt line: Find the recorded IC50 belonging to COc1ccccc1[C@@H](O)Cn1c(=O)n([C@@H]2CCN(C)C2=O)c(=O)c2c(C)c(-n3nccn3)sc21 and report it.
Response line: 0.01 to 0.1 µM

Prompt line: Find the recorded IC50 belonging to COCCO[C@@H](Cn1c(=O)n([C@]2(C)CC(=O)N(C)C2)c(=O)c2c(C)c(-n3nccn3)sc21)c1cc(F)ccc1OC and report it.
Response line: 0.01 to 0.1 µM

Prompt line: Find the recorded IC50 belonging to COc1ccc(F)cc1[C@H](Cn1c(=O)n([C@@]2(C)CNC(=O)C2)c(=O)c2c(C)c(-n3nccn3)sc21)OCCO and report it.
Response line: 0.01 to 0.1 µM

Prompt line: Find the recorded IC50 belonging to COc1ccccc1C(=O)Cn1c(=O)n([C@H]2CCN(C)C2=O)c(=O)c2c(C)c(-n3nccn3)sc21 and report it.
Response line: > 1 µM

Prompt line: Find the recorded IC50 belonging to COCCO[C@@H](Cn1c(=O)n([C@H]2CCN(C(=O)C(C)C)C2)c(=O)c2c(C)c(-n3nccn3)sc21)c1cc(F)ccc1OC and report it.
Response line: 0.01 to 0.1 µM

Prompt line: Find the recorded IC50 belonging to COc1ccc(F)cc1[C@H](Cn1c(=O)n([C@H]2CCN(C)C2=O)c(=O)c2c(C)c(-n3nccn3)sc21)O[C@H]1CC[C@@H](O)CC1 and report it.
Response line: 0.002 to 0.01 µM

Prompt line: Find the recorded IC50 belonging to COc1ccc(F)cc1[C@H](Cn1c(=O)n([C@@H]2CCNC2=O)c(=O)c2c(C)c(-n3nccn3)sc21)O[C@H]1CC[C@@H](O)CC1 and report it.
Response line: 0.002 to 0.01 µM

Prompt line: Find the recorded IC50 belonging to COCCO[C@@H](Cn1c(=O)n([C@@H]2CCN(C(C)C)C2=O)c(=O)c2c(C)c(-n3nccn3)sc21)c1cc(F)ccc1OC and report it.
Response line: 0.01 to 0.1 µM

Prompt line: Find the recorded IC50 belonging to COc1ccc(F)cc1[C@H](Cn1c(=O)n([C@H]2CCCNC2=O)c(=O)c2c(C)c(-n3nccn3)sc21)OCCC(=O)O and report it.
Response line: 0.01 to 0.1 µM

Prompt line: Find the recorded IC50 belonging to COc1ccc(F)cc1[C@H](Cn1c(=O)n([C@H]2CCN(C)C2=O)c(=O)c2c(C)c(-n3nccn3)sc21)OC and report it.
Response line: 0.01 to 0.1 µM

Prompt line: Find the recorded IC50 belonging to COCCO[C@@H](Cn1c(=O)n(C2CCCN(C)C2=O)c(=O)c2c(C)c(-n3nccn3)sc21)c1cc(F)ccc1OC (stereo partly shown) and report it.
Response line: 0.01 to 0.1 µM

###

biological target: Human ACC2 (Homo sapiens, UniProt O00763)
Sequence (O00763 whole entry): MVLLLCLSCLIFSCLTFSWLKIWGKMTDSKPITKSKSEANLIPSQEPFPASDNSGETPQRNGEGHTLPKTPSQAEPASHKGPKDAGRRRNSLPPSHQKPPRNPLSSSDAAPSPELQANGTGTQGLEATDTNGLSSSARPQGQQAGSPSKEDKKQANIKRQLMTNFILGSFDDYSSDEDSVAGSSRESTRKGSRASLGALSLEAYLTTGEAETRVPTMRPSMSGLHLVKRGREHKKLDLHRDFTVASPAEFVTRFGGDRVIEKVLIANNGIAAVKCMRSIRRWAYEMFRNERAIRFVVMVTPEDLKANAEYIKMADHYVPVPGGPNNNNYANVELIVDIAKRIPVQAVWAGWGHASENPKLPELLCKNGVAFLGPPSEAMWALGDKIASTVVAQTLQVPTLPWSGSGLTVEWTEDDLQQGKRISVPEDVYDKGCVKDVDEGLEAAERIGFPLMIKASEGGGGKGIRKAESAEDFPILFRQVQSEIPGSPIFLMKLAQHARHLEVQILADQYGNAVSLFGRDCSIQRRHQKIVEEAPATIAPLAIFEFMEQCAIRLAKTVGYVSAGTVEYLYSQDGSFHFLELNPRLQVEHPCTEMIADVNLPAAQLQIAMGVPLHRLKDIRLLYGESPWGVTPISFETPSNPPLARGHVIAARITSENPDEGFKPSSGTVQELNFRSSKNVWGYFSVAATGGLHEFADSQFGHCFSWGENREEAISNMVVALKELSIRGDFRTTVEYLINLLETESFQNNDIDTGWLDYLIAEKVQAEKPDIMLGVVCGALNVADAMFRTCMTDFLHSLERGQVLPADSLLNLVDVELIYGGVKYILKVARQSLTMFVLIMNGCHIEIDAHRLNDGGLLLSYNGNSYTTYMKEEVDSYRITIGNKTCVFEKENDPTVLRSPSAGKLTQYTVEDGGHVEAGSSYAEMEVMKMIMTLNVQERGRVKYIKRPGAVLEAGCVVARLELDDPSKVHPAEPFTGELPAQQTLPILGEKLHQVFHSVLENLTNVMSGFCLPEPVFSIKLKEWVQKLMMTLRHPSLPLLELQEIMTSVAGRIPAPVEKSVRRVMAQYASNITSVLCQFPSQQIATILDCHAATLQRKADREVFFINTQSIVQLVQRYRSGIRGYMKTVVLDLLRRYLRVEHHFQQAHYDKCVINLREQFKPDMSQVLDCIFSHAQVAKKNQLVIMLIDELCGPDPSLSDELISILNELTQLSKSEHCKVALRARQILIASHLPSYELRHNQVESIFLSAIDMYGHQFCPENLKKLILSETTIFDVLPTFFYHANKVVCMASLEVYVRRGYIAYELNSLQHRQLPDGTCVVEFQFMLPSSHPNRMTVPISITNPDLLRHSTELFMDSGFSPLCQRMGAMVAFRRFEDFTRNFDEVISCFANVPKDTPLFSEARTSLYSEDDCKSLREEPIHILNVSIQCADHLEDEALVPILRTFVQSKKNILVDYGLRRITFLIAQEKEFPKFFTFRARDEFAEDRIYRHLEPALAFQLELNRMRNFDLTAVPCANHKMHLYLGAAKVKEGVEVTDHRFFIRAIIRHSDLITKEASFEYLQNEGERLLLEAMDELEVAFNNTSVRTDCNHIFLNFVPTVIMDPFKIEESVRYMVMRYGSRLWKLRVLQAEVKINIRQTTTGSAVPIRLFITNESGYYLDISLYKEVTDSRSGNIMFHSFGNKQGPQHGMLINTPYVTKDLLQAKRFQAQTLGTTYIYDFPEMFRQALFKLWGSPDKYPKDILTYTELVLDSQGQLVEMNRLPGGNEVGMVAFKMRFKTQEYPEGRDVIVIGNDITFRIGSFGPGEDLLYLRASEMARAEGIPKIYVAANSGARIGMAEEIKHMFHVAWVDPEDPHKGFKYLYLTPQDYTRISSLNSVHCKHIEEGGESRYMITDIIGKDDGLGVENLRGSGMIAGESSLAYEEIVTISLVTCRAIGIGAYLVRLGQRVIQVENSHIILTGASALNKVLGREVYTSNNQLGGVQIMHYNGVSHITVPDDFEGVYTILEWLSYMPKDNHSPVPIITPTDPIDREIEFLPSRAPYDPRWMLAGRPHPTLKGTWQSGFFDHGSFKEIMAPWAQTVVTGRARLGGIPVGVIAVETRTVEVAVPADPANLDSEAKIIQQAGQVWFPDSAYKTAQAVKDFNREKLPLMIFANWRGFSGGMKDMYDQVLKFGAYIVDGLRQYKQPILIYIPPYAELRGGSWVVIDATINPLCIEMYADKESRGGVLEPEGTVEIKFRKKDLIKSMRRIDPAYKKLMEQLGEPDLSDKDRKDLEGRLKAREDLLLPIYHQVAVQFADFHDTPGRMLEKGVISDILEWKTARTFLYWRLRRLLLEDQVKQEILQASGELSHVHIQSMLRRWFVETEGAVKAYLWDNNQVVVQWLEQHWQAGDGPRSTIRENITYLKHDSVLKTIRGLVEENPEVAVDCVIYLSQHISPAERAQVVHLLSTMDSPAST
MEASUREMENT KIND: IC50

Prompt line: Find the recorded IC50 belonging to COc1ccc(F)cc1[C@H](Cn1c(=O)n([C@@H]2CCCNC2=O)c(=O)c2c(C)c(-n3nccn3)sc21)OCCC#N and report it.
Response line: 2 to 10 nM

Prompt line: Find the recorded IC50 belonging to COc1ccc(F)cc1[C@H](Cn1c(=O)n([C@H]2CCN(C)C2=O)c(=O)c2c(C)c(-n3nccn3)sc21)OCCC#N and report it.
Response line: 2 to 10 nM

Prompt line: Find the recorded IC50 belonging to COCCO[C@@H](Cn1c(=O)n([C@@H]2CC(=O)N(C)C2)c(=O)c2c(C)c(-n3nccn3)sc21)c1cc(F)ccc1OC and report it.
Response line: 10 to 100 nM

Prompt line: Find the recorded IC50 belonging to COc1ccc(F)cc1[C@H](Cn1c(=O)n([C@H]2CCCN(C(C)C)C2=O)c(=O)c2c(C)c(-n3nccn3)sc21)OC1CCOCC1 and report it.
Response line: 10 to 100 nM

Prompt line: Find the recorded IC50 belonging to COc1ccc(F)cc1[C@H](Cn1c(=O)n([C@@H]2CCNC2=O)c(=O)c2c(C)c(-c3ncco3)sc21)O[C@H]1CC[C@@H](O)CC1 and report it.
Response line: 0.7 to 2 nM

Prompt line: Find the recorded IC50 belonging to COCCO[C@@H](Cn1c(=O)n([C@@]2(C)CCC(=O)NC2)c(=O)c2c(C)c(-n3nccn3)sc21)c1cc(F)ccc1OC and report it.
Response line: 100 to 1000 nM

Prompt line: Find the recorded IC50 belonging to COCCO[C@@H](Cn1c(=O)n([C@@H]2CCN(C(=O)C(C)C)C2)c(=O)c2c(C)c(-n3nccn3)sc21)c1cc(F)ccc1OC and report it.
Response line: 10 to 100 nM

Prompt line: Find the recorded IC50 belonging to COc1ccc(F)cc1[C@H](Cn1c(=O)n([C@@H]2CCNC2=O)c(=O)c2c(C)c(-n3nccn3)sc21)O[C@H]1C[C@H](O)C1 and report it.
Response line: 2 to 10 nM

Prompt line: Find the recorded IC50 belonging to COCCO[C@@H](Cn1c(=O)n([C@H]2CCN(C)C2=O)c(=O)c2c(C)c(-n3nccn3)sc21)c1cc(F)ccc1OCC#N and report it.
Response line: 10 to 100 nM

Prompt line: Find the recorded IC50 belonging to COCCO[C@@H](Cn1c(=O)n([C@@]2(C)CNC(=O)C2)c(=O)c2c(C)c(-n3nccn3)sc21)c1cc(F)ccc1OC and report it.
Response line: 10 to 100 nM

Prompt line: Find the recorded IC50 belonging to COCCO[C@@H](Cn1c(=O)n([C@H]2CCCN(C)C2=O)c(=O)c2c(C)c(-n3cccn3)sc21)c1cc(F)ccc1OC and report it.
Response line: 100 to 1000 nM

Prompt line: Find the recorded IC50 belonging to COc1ccc(F)cc1[C@H](Cn1c(=O)n([C@H]2CCNC2=O)c(=O)c2c(C)c(-n3nccn3)sc21)OCCC#N and report it.
Response line: 10 to 100 nM

Prompt line: Find the recorded IC50 belonging to COc1ccc(F)cc1[C@H](Cn1c(=O)n(C2CCCNC2=O)c(=O)c2c(C)c(-n3nccn3)sc21)OC1CCOCC1 (some centres unmarked) and report it.
Response line: 2 to 10 nM

Prompt line: Find the recorded IC50 belonging to COc1ccccc1[C@H](Cn1c(=O)n([C@H]2CCCN(C)C2=O)c(=O)c2c(C)c(-c3ncco3)sc21)OCCO and report it.
Response line: 10 to 100 nM
